Hello, the source for this data is patent US20200239586A1, in case you need it.

- STUDY SYSTEM: T1, human Fn14 (human, UniProt Q9NP84 28-129)
- T1 sequence: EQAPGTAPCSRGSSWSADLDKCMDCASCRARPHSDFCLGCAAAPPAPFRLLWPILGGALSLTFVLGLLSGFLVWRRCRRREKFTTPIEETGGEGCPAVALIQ
- PROCEDURE TEXT: cell-based or functional assay
ASSAY READOUT: % Agonist, IL-8 secretion by A375 cells
Report as: number unit

*Q* Please supply the value of reported % Agonist, IL-8 secretion by A375 cells for the item CRCBT-06-002 (antibody, IgG1, V domains shown) VH: EVKLQQSGGGLVQPGGSMKLSCVASGFTFSYYWMNWVRQSPEQGLEWIAEIRLQSNDYPTHYAESVKGRFTISRDDSKNSVYLQMNNLRPEDTGIYYCACRYADYFDHWGQGTTLTVSS VL: DTVLTQSPASLVVSLGQRATISCRASQSVSTSDYSYIHWYQQKPGQPPKFLIKYASNRDSGVPARFSGSGSGTDFTLNIHPVEEDDTAIYYCQHSWEIPPTFGAGTKLELQR
*A* 11%

*Q* Please supply the value of reported % Agonist, IL-8 secretion by A375 cells for the item CRCBT-06-001 (antibody, IgG2b, V domains shown) VH: QVQLQQSGGGLVQPGGSMKLSCIASGFTFSSYWMSWVRQSPEKGLEWVAEIRSKSDNYATHYAESVKGKFTISRDDSKSRFFLQMNNLRAEDTGIYYCSSTYADYFHYWGQGTDLTVSS VL: DIVMTQTPASLAVSLGQRATISCRASQSVSTSTYSYMHWYQQKPGQPPKLLIKYASSLESGVPARFSGSGSGTDFTLNIHPVEEDDTATYYCQHSWEIPYTFGGGTKLEIKR
*A* 128%

*Q* Please supply the value of reported % Agonist, IL-8 secretion by A375 cells for the item CRCBT-06-005 (antibody, IgG2b, V domains shown) VH: QVQLQESGGGLVQPGGSMKLSCVASGFTFSYYWMNWVRQSPEQGLEWIAEIRLQSNDYPTHYAESVKGRFTISRDDSKNSVYLQMNNLRPEDTGIYYCACRYADYFDHWGQGTTLTVSS VL: DIVLTQTTASLTVSLGQRATISCRASQSVSTSTYSYMHWYQQTPGQPPTVLIKYASSLESGVPTRFSGSGSGTDFTLNIHPVEEEDTATYYCQHSWEIPYTFGGGTKLEIKR
*A* 26%

*Q* Please supply the value of reported % Agonist, IL-8 secretion by A375 cells for the item CRCBT-06-006 (antibody, IgG2a, V domains shown) VH: QVQLQESGGGLVQPGGSMKLSCVASGFTFSYYWMNWVRQSPEQGLEWIAEIRLQSNDYPTHYAESVKGRFTISRDDSKNSVYLQMNNLRPEDTGIYYCACRYADYFDHWGQGTTLTVSS VL: DIVITQSPASLTVSLGQRATISCRASQSVSTSTYSYMHWYQQTPGQPPTVLIKYASSLESGVPTRFSGSGSGTDFTLNIHPVEEEDTATYYCQHSWEIPYTFGGGTKLEIKR
*A* 106%

*Q* Please supply the value of reported % Agonist, IL-8 secretion by A375 cells for the item CRCBT-06-007 (antibody, IgG2b, V domains shown) VH: QVKLEESGGVLVQPGGSMKLSCIASGFSFSKYWMNWVRQSPEKGLEWVAEIRVKSNNYATHYAESVKGRFIISRDDSKSSVYLQMNNLRAEDTGIYYCTKSYADYFDYWGQGTTLTVSS VL: DIVMTQSTASLAVSLGQRATISCRASQSVSTSSYSYMHWYQQKPGQPPKVLIKYASNLESGVPARFSGSGSGTDFTLNIHPVEEEDAATYYCQHSWEIPYTFGGGTKLEIKR
*A* 16%
